tested on: DNA; test: Binding affinity to calf thymus DNA at 5 uM after 18 hrs by UV-visible spectrophotometric analysis; format: nucleic-acid assay; settings: Bos taurus
RECORDED_METRIC: ΔTm
Answer with the figure and its unit, nothing else.

These solved cases illustrate the format of a correct answer.
COC(=O)c1cc(NC(=O)c2cc(NC(=O)c3nc(NC(=O)CCCOc4cc5c(cc4OC)C(=O)N4CCC[C@H]4C=N5)cn3C)cn2C)cn1C : 21.1 °C
COC(=O)c1cc(NC(=O)c2nc(NC(=O)c3nc(NC(=O)CCCOc4cc5c(cc4OC)C(=O)N4CCC[C@H]4C=N5)cn3C)cn2C)cn1C : 15.4 °C
COC(=O)c1cc(NC(=O)c2nc(NC(=O)c3cc(NC(=O)CCCOc4cc5c(cc4OC)C(=O)N4CCC[C@H]4C=N5)cn3C)cn2C)cn1C : 16.9 °C
COC(=O)c1cc(NC(=O)c2csc(NC(=O)c3cc(NC(=O)CCCOc4cc5c(cc4OC)C(=O)N4CCC[C@H]4C=N5)cn3C)n2)cn1C : 20.7 °C
CCOC(=O)c1nc(NC(=O)c2cc(NC(=O)c3nc(NC(=O)CCCOc4cc5c(cc4OC)C(=O)N4CCC[C@H]4C=N5)cn3C)cn2C)cn1C : 16.2 °C

Per the reported DNA data, `CCOC(=O)c1nc(NC(=O)c2nc(NC(=O)c3cc(NC(=O)CCCOc4cc5c(cc4OC)C(=O)N4CCC[C@H]4C=N5)cn3C)cn2C)cn1C` has ΔTm of 15.2 °C
